Test system: 422866-222-R5-J1-PDC complex spheroid viability
Experiment: Anticancer human tumor 422866-222-R5-J1-PDC patient-derived pancreatic adenocarcinoma cell line growth inhibition [POLQ]
Conditions: second compound 10 µM; first compound 0.1 µM; stronger effect = lower value
Description: Multicellular complex tumor spheroid response to Polymerase (POL) inhibitors (novobiocin, ART-558, RP6685) in combination with a variety of drugs and investigational agents in selected tumor cell lines The POL inhibitors (novobiocin, ART-558, and RP6685) were evaluated both individually and in combination with standard of care and investigational anticancer small molecules within a complex spheroid model of solid tumors. . […]
experimental.readout: viability, T/C (%)
Answers are plain numbers, in %.

Previously resolved entries follow.
- molecule: "COc1cc(C2c3cc4c(cc3C(OC3OC5COC(C)OC5C(O)C3O)C3COC(=O)C23)OCO4)cc(OC)c1O (stereo not given) + Cc1cccc(N(C)C(=O)C2C(O)CCN2c2nc(C)cc(C(F)(F)F)c2C#N)c1"
  viability, T/C (%): 77.1
- molecule: "C=CC(=O)N1CCN(c2nc(=O)n(-c3c(C)ccnc3C(C)C)c3nc(-c4c(O)cccc4F)c(F)cc23)C(C)C1 (stereo not given) + Nc1ccc(C#CCN(C(=O)Cc2ncc(C(F)(F)F)cc2C(F)(F)F)c2ccc(F)cc2)nn1"
  viability, T/C (%): 32.6
- molecule: "COc1cccc(OCCCN)c1-c1cc(Nc2cnc(C#N)cn2)n[nH]1 + Cc1cccc(N(C)C(=O)C2C(O)CCN2c2nc(C)cc(C(F)(F)F)c2C#N)c1"
  viability, T/C (%): 30.5
- molecule: "COc1cc2cc(C(=O)CCC(=O)O)sc2cc1OC + COC1C(OC(N)=O)C(O)C(Oc2ccc3c(O)c(NC(=O)c4ccc(O)c(CC=C(C)C)c4)c(=O)oc3c2C)OC1(C)C"
  viability, T/C (%): 104

Turning now to a further record.
Input line: Form field: reported viability, T/C of CC1COCCN1c1cc(C2(S(C)(=N)=O)CC2)nc(-c2ccnc3[nH]ccc23)n1 (stereo not given) + Nc1ccc(C#CCN(C(=O)Cc2ncc(C(F)(F)F)cc2C(F)(F)F)c2ccc(F)cc2)nn1
Output line: 117

====

system: 422866-222-R5-J1-PDC complex spheroid viability; assay: Anticancer human tumor 422866-222-R5-J1-PDC cell line growth inhibition [POLQ]; conditions: second compound 0.1 µM; first compound 0.0316 µM; stronger effect = lower value;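 also: spheroids exposed to compounds for one week before readout; percent of DMSO vehicle wells luminescence so 100% = untreated viability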
experimental.readout: viability, T/C (%)
Give bare numbers, in %.

- compound: "C=CCn1c(=O)c2cnc(Nc3ccc(N4CCN(C)CC4)cc3)nc2n1-c1cccc(C(C)(C)O)n1 + Nc1ccc(C#CCN(C(=O)Cc2ncc(C(F)(F)F)cc2C(F)(F)F)c2ccc(F)cc2)nn1"
  experimental.readout: "viability, T/C"
  unit: "%"
  result: 98.2
- compound: "COc1ccc([C@@H](O)c2cc(-c3ncnc4cc(N5CCOCC5)ccc34)c(F)cc2Cl)nn1 + Cc1cccc(N(C)C(=O)C2C(O)CCN2c2nc(C)cc(C(F)(F)F)c2C#N)c1"
  experimental.readout: "viability, T/C"
  unit: "%"
  result: 92

Turning now to a further record.
Input line: Form field: reported viability, T/C of CNCc1ccc(-c2[nH]c3cc(F)cc4c3c2CCNC4=O)cc1 + Cc1cccc(N(C)C(=O)C2C(O)CCN2c2nc(C)cc(C(F)(F)F)c2C#N)c1
Output line: 94.8

====

test system: 422866-222-R5-J1-PDC complex spheroid viability; test: Anticancer human tumor 422866-222-R5-J1-PDC cell line growth inhibition [POLQ]; settings: second compound 0.1 µM; first compound 0.1 µM; stronger effect = lower value;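 also: spheroids exposed to compounds for one week before readout; percent of DMSO vehicle wells luminescence so 100% = untreated viability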
Assignment: determine reported viability, T/C for the given molecules.
Give bare numbers, in %.

Previously resolved entries follow.
- molecule: "CCc1cc2c(N3CCc4c(cc(Cn5ccnc5)cc4-c4cn(C)nc4C(F)(F)F)C3=O)ccnc2c(OC)n1 + Cc1cccc(N(C)C(=O)C2C(O)CCN2c2nc(C)cc(C(F)(F)F)c2C#N)c1"
  experimental.target: "422866-222-R5-J1-PDC complex spheroid viability"
  experimental.readout: "viability, T/C"
  result: 87.9
- molecule: "CC(C)n1c(=O)n(C)c2cnc3cc(F)c(-c4ccc(OCCCN5CCCCC5)nc4)cc3c21 + Cc1cccc(N(C)C(=O)C2C(O)CCN2c2nc(C)cc(C(F)(F)F)c2C#N)c1"
  experimental.target: "422866-222-R5-J1-PDC complex spheroid viability"
  experimental.readout: "viability, T/C"
  result: 108
- molecule: "C=CCn1c(=O)c2cnc(Nc3ccc(N4CCN(C)CC4)cc3)nc2n1-c1cccc(C(C)(C)O)n1 + Nc1ccc(C#CCN(C(=O)Cc2ncc(C(F)(F)F)cc2C(F)(F)F)c2ccc(F)cc2)nn1"
  experimental.target: "422866-222-R5-J1-PDC complex spheroid viability"
  experimental.readout: "viability, T/C"
  result: 80.8
- molecule: "Nc1ccn(C2OC(CO)C(O)C2(F)F)c(=O)n1 (stereo unspecified) + Cc1cccc(N(C)C(=O)C2C(O)CCN2c2nc(C)cc(C(F)(F)F)c2C#N)c1"
  experimental.target: "422866-222-R5-J1-PDC complex spheroid viability"
  experimental.readout: "viability, T/C"
  result: 43.2
- molecule: "Cn1ncnc1[C@H]1c2n[nH]c(=O)c3cc(F)cc(c23)N[C@@H]1c1ccc(F)cc1 + Nc1ccc(C#CCN(C(=O)Cc2ncc(C(F)(F)F)cc2C(F)(F)F)c2ccc(F)cc2)nn1"
  experimental.target: "422866-222-R5-J1-PDC complex spheroid viability"
  experimental.readout: "viability, T/C"
  result: 74.1
- molecule: "C=CCn1c(=O)c2cnc(Nc3ccc(N4CCN(C)CC4)cc3)nc2n1-c1cccc(C(C)(C)O)n1 + Cc1cccc(N(C)C(=O)C2C(O)CCN2c2nc(C)cc(C(F)(F)F)c2C#N)c1"
  experimental.target: "422866-222-R5-J1-PDC complex spheroid viability"
  experimental.readout: "viability, T/C"
  result: 85.8

# return viability, T/C for each item in the list
1. Cn1ncnc1[C@H]1c2n[nH]c(=O)c3cc(F)cc(c23)N[C@@H]1c1ccc(F)cc1 + COC1C(OC(N)=O)C(O)C(Oc2ccc3c(O)c(NC(=O)c4ccc(O)c(CC=C(C)C)c4)c(=O)oc3c2C)OC1(C)C
2. Nc1ccn(C2OC(CO)C(O)C2(F)F)c(=O)n1 (stereo unspecified) + Nc1ccc(C#CCN(C(=O)Cc2ncc(C(F)(F)F)cc2C(F)(F)F)c2ccc(F)cc2)nn1
3. Cn1ncnc1[C@H]1c2n[nH]c(=O)c3cc(F)cc(c23)N[C@@H]1c1ccc(F)cc1 + Cc1cccc(N(C)C(=O)C2C(O)CCN2c2nc(C)cc(C(F)(F)F)c2C#N)c1
4. CCc1cc2c(N3CCc4c(cc(Cn5ccnc5)cc4-c4cn(C)nc4C(F)(F)F)C3=O)cc(C)nc2c(OC)n1 + Cc1cccc(N(C)C(=O)C2C(O)CCN2c2nc(C)cc(C(F)(F)F)c2C#N)c1
5. CC[C@@]1(O)C(=O)OCc2c1cc1n(c2=O)Cc2cc3c(CN(C)C)c(O)ccc3nc2-1 + COC1C(OC(N)=O)C(O)C(Oc2ccc3c(O)c(NC(=O)c4ccc(O)c(CC=C(C)C)c4)c(=O)oc3c2C)OC1(C)C

Output line:
1: 90.3; 2: 37.7; 3: 65.9; 4: 83.5; 5: 40.1

====

test system: 422866-222-R5-J1-PDC complex spheroid viability; assay: Anticancer human tumor 422866-222-R5-J1-PDC cell line growth inhibition [POLQ]; conditions: second compound 0.1 µM; first compound 1 µM; stronger effect = lower value;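 also: spheroids exposed to compounds for one week before readout; percent of DMSO vehicle wells luminescence so 100% = untreated viability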
Assignment: determine reported viability, T/C for the given compounds.
Answers are plain numbers, in %.

Previously resolved entries follow.
- compound: "CC1COCCN1c1cc(-c2ccnn2C)c2ccnc(-c3ccn[nH]3)c2n1 (stereo unspecified) + COC1C(OC(N)=O)C(O)C(Oc2ccc3c(O)c(NC(=O)c4ccc(O)c(CC=C(C)C)c4)c(=O)oc3c2C)OC1(C)C"
  viability, T/C (%): 46.1
- compound: "Nc1ccn(C2OC(CO)C(O)C2(F)F)c(=O)n1 (stereo unspecified) + Nc1ccc(C#CCN(C(=O)Cc2ncc(C(F)(F)F)cc2C(F)(F)F)c2ccc(F)cc2)nn1"
  viability, T/C (%): 32.4
- compound: "CNCc1ccc(-c2[nH]c3cc(F)cc4c3c2CCNC4=O)cc1 + Nc1ccc(C#CCN(C(=O)Cc2ncc(C(F)(F)F)cc2C(F)(F)F)c2ccc(F)cc2)nn1"
  viability, T/C (%): 107
- compound: "C=CCn1c(=O)c2cnc(Nc3ccc(N4CCN(C)CC4)cc3)nc2n1-c1cccc(C(C)(C)O)n1 + Nc1ccc(C#CCN(C(=O)Cc2ncc(C(F)(F)F)cc2C(F)(F)F)c2ccc(F)cc2)nn1"
  viability, T/C (%): 32.8
- compound: "COc1cccc2c1C(=O)c1c(O)c3c(c(O)c1C2=O)CC(O)(C(=O)CO)CC3OC1CC(N)C(O)C(C)O1 (stereo unspecified) + COC1C(OC(N)=O)C(O)C(Oc2ccc3c(O)c(NC(=O)c4ccc(O)c(CC=C(C)C)c4)c(=O)oc3c2C)OC1(C)C"
  viability, T/C (%): 25.3
- compound: "CC1COCCN1c1cc(-c2ccnn2C)c2ccnc(-c3ccn[nH]3)c2n1 (stereo unspecified) + Nc1ccc(C#CCN(C(=O)Cc2ncc(C(F)(F)F)cc2C(F)(F)F)c2ccc(F)cc2)nn1"
  viability, T/C (%): 37.4
- compound: "CC1COCCN1c1cc(C2(S(C)(=N)=O)CC2)nc(-c2ccnc3[nH]ccc23)n1 (stereo unspecified) + COC1C(OC(N)=O)C(O)C(Oc2ccc3c(O)c(NC(=O)c4ccc(O)c(CC=C(C)C)c4)c(=O)oc3c2C)OC1(C)C"
  viability, T/C (%): 75.4
- compound: "C#Cc1c(F)ccc2cc(O)cc(-c3ncc4c(N5CC6CCC(C5)N6)nc(OCC56CCCN5CC(F)C6)nc4c3F)c12 (stereo unspecified) + Nc1ccc(C#CCN(C(=O)Cc2ncc(C(F)(F)F)cc2C(F)(F)F)c2ccc(F)cc2)nn1"
  viability, T/C (%): 43.4

# return viability, T/C for each item in the list
1. CC(C)n1c(=O)n(C)c2cnc3cc(F)c(-c4ccc(OCCCN5CCCCC5)nc4)cc3c21 + Cc1cccc(N(C)C(=O)C2C(O)CCN2c2nc(C)cc(C(F)(F)F)c2C#N)c1
2. COc1cc2cc(C(=O)CCC(=O)O)sc2cc1OC + Cc1cccc(N(C)C(=O)C2C(O)CCN2c2nc(C)cc(C(F)(F)F)c2C#N)c1

Output line:
1. 115
2. 101

Input line: Give 422866-222-R5-J1-PDC complex spheroid viability viability, T/C for COc1cc2cc(C(=O)CCC(=O)O)sc2cc1OC + Nc1ccc(C#CCN(C(=O)Cc2ncc(C(F)(F)F)cc2C(F)(F)F)c2ccc(F)cc2)nn1
Output line: 95.3
